biological target: EEF2K (human) (UniProt O00418); test: radiometric filter-binding kinase assay; settings: compound 1.0 µM
Sequence (O00418 whole entry, looked up): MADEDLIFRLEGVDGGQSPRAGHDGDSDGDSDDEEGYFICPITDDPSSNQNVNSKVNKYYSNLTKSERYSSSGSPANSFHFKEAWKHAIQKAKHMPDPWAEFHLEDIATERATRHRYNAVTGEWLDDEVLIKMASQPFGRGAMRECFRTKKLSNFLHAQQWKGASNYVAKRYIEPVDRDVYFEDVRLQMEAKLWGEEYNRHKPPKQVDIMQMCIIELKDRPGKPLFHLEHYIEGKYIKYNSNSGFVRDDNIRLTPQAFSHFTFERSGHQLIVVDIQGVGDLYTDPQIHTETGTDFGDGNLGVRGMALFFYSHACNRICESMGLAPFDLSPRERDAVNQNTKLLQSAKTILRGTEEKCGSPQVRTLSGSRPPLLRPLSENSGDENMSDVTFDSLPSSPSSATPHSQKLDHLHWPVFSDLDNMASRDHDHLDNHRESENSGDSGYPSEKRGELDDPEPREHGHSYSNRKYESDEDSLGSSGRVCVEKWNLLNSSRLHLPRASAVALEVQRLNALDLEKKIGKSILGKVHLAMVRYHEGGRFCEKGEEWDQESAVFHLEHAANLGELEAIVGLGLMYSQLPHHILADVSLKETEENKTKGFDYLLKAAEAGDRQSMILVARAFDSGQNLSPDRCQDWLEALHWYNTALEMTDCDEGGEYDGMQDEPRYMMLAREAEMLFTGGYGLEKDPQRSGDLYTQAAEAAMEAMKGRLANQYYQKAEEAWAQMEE
experimental.readout: residual activity (%)

| molecule | residual activity [%] |
| --- | --- |
| O=C1Nc2nc(-c3c(O)cccc3OCC3CC3)cc(C3CCCNC3)c2CO1 (stereo not given) | 88 |
| CN1C(=O)[C@@H](Cc2c[nH]c3ccccc23)NC1=S | 83 |
| COc1ccc(-n2ncc3cnc(Nc4cc(OC)c(OC)c(OCCCN5CCN(C)CC5)c4)nc32)cc1 | 91 |
| COc1cc(O)c2c(c1)/C=C/C[C@H](O)[C@H](O)C(=O)/C=C\C[C@H](C)OC2=O | 85 |
| Cc1cccc(Nc2nn(C)c3ncnc(N)c23)c1 | 97 |
| CN(C)C/C=C/C(=O)Nc1cccc(C(=O)Nc2ccc(Nc3nccc(-c4cccnc4)n3)cc2)c1 | 101 |
| Oc1ccc2ccccc2c1SSc1c(O)ccc2ccccc12 | 83 |
| O=C(NCCCNc1nc(Nc2cccc(CN3CCOCC3)c2)ncc1C1CC1)C1CCC1 | 110 |

A = O=c1c(O)c(-c2ccc(O)c(O)c2)oc2cc(O)c(O)c(O)c12
B = O=C1NC(=S)N[C@@H]1Cc1c[nH]c2ccccc12
API: POST /compare with A and B ; response names the item with higher residual activity. Which one? Tell me its label.
A
